measurement target: EP4 receptors (Homo sapiens)
Construct: expressed in transfected cells; host or cells: HEK-293
Sequence (P35408 whole entry): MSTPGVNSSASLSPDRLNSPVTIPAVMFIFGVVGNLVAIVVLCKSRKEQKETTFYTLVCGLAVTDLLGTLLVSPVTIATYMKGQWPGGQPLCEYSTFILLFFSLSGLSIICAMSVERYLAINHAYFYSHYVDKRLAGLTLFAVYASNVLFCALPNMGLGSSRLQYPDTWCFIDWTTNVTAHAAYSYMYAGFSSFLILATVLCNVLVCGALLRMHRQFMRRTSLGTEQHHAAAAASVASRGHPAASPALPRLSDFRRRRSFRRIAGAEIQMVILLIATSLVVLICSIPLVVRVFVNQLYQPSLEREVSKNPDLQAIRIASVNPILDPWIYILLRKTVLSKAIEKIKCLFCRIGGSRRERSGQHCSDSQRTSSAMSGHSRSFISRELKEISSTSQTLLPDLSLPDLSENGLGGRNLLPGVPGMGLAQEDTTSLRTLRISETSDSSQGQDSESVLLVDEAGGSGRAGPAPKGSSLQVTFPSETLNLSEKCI
method description: Radioligand binding ([3H]PGE2), EP4
particulars: unit inferred; read-out: EP4 data KI
Readings of Ki for the listed molecules
measurement kind: Ki

molecule: CCCCCCC(O)c1ccc(N2C(=O)CC[C@@H]2COCc2ccc(C(=O)O)s2)cc1 (stereo partly drawn) [drawing 141]
measurement kind: Ki
assay value: > 10 µM
//
molecule: CCC(O)c1ccc(N2C(=O)CC[C@@H]2COCc2ccc(C(=O)O)s2)cc1 (stereo partly drawn)
measurement kind: Ki
assay value: > 10 µM
//
molecule: CCCCCC(O)c1ccc(N2C(=O)CC[C@@H]2CCCc2ccc(C(=O)O)s2)cc1 (single isomer, unassigned) [drawing 179]
measurement kind: Ki
assay value: 4.85 µM
//
molecule: CC(C)C(O)c1ccc(N2C(=O)CC[C@@H]2COCc2ccc(C(=O)O)o2)cc1 (stereo partly drawn)
measurement kind: Ki
assay value: > 10 µM
//
molecule: CCCCCCC(O)c1ccc(N2C(=O)CC[C@@H]2COCc2ccc(C(=O)O)s2)cc1 (single isomer, unassigned) [drawing 153]
measurement kind: Ki
assay value: 3.29 µM
//
molecule: CCCCCC(O)c1ccc(N2C(=O)CC[C@@H]2COCc2ccc(C(=O)O)s2)cc1 (single isomer, unassigned) [drawing 149]
measurement kind: Ki
assay value: 6.03 µM
//
molecule: CCCCCC(O)c1ccc(N2C(=O)CC[C@@H]2COCc2ccc(C(=O)O)o2)cc1 (stereo partly drawn)
measurement kind: Ki
assay value: > 10 µM
//
molecule: CCCCCC(O)c1ccc(N2C(=O)CC[C@@H]2CCCc2ccc(C(=O)O)s2)cc1 (single isomer, unassigned) [drawing 180]
measurement kind: Ki
assay value: 3.84 µM
//
molecule: CCCCCCC(O)c1ccc(N2C(=O)CC[C@@H]2COCc2ccc(C(=O)O)s2)cc1 (stereo partly drawn) [drawing 169]
measurement kind: Ki
assay value: > 10 µM
//
molecule: CCCCC(O)c1ccc(N2C(=O)CC[C@@H]2COCc2ccc(C(=O)O)s2)cc1 (stereo partly drawn)
measurement kind: Ki
assay value: > 10 µM
//
molecule: CCCCCC(O)c1ccc(N2C(=O)CC[C@@H]2COCc2ccc(C(=O)O)s2)cc1 (single isomer, unassigned) [drawing 148]
measurement kind: Ki
assay value: > 10 µM
//
molecule: CCCCCC(=O)c1ccc(N2C(=O)CC[C@@H]2CCCc2ccc(C(=O)O)s2)cc1
measurement kind: Ki
assay value: > 10 µM
//
molecule: CCCCCC(O)c1ccc(N2C(=O)CC[C@@H]2CCCc2ccc(C(=O)O)s2)cc1 (stereo partly drawn) [drawing 173]
measurement kind: Ki
assay value: > 10 µM
//
molecule: CCCC(O)c1ccc(N2C(=O)CC[C@@H]2COCc2ccc(C(=O)O)s2)cc1 (stereo partly drawn)
measurement kind: Ki
assay value: > 10 µM
//
molecule: CCCCCC(O)c1ccc(N2C(=O)CC[C@@H]2CCCc2ccc(C(=O)O)s2)cc1 (single isomer, unassigned) [drawing 178]
measurement kind: Ki
assay value: > 10 µM
//
molecule: CCCCCCC(O)c1ccc(N2C(=O)CC[C@@H]2COCc2ccc(C(=O)O)s2)cc1 (single isomer, unassigned) [drawing 181]
measurement kind: Ki
assay value: 3.29 µM
//
molecule: CCCCCC(O)c1ccc(N2C(=O)CC[C@@H]2COCc2ccc(C(=O)O)s2)cc1 (single isomer, unassigned) [drawing 176]
measurement kind: Ki
assay value: > 10 µM
//
molecule: CCCCCC(O)c1ccc(N2C(=O)CC[C@@H]2/C=C/Cc2ccc(C(=O)O)s2)cc1 (stereo partly drawn) [drawing 144]
measurement kind: Ki
assay value: > 10 µM
//
molecule: CCCCCC(=O)c1ccc(N2C(=O)CC[C@@H]2COCc2ccc(C(=O)O)s2)cc1
measurement kind: Ki
assay value: > 10 µM
//
molecule: O=C(O)c1ccc(COC[C@H]2CCC(=O)N2c2ccc(C(O)Cc3ccccc3)cc2)o1 (stereo partly drawn)
measurement kind: Ki
assay value: > 10 µM
//
molecule: CCCCCC(O)c1ccc(N2C(=O)CC[C@@H]2COc2ccc(C(=O)O)cc2)cc1 (stereo partly drawn) [drawing 185]
measurement kind: Ki
assay value: 8.75 µM
//
molecule: CC(C)(C)c1ccc(N2C(=O)CC[C@@H]2COCc2cccc(C(=O)O)c2)cc1
measurement kind: Ki
assay value: > 10 µM
//
molecule: CCCCCC(O)c1ccc(N2C(=O)CC[C@@H]2COc2ccc(C(=O)O)cc2)cc1 (stereo partly drawn) [drawing 157]
measurement kind: Ki
assay value: 8.75 µM
//
molecule: CC(C)(C)c1ccc(N2C(=O)CC[C@@H]2COCc2ccc(C(=O)O)o2)cc1
measurement kind: Ki
assay value: > 10 µM
